Values compiled from ChEMBL document CHEMBL2177000.

# assay: Clearance in mouse liver microsomes at 1 uM incubated for 10 mins by LC-MS/MS method
# Type: ADME, Microsome
This section presents compounds with their documented CLhep predicted at 1 µM values.
A number alone suffices; assume mL/min/kg.

CN1C[C@H](C(=O)Nc2ccc(Cl)cc2)[C@@H](c2ccc(/C=C/C(=O)Nc3ccccc3N)nc2)C1 (racemic) : 38
CC(C)N1C[C@H](C(=O)Nc2ccc(Cl)cc2)[C@@H](c2ccc(/C=C/C(=O)Nc3ccccc3N)cc2)C1 (racemic) : 38
CC(C)(O)CN1C[C@H](C(=O)Nc2ccc(Cl)cc2)[C@@H](c2ccc(/C=C/C(=O)Nc3ccccc3N)cc2)C1 (racemic) : 34

We next turn to a different compound, shown below.
For this compound ( CN1C[C@H](C(=O)Nc2ccc(Cl)cc2)[C@@H](c2ccc(/C=C/C(=O)Nc3ccccc3N)cn2)C1 (racemic) ), measured CLhep predicted at 1 µM is 36
